target: T1, Histidine-tagged human CD3e protein (human, UniProt P07766 23-126); assay: SPR (Biacore), human CD3e
T1 construct: also called hCD3e-His; not shown: His tag
T1 sequence (P07766 23-126 limits assumed): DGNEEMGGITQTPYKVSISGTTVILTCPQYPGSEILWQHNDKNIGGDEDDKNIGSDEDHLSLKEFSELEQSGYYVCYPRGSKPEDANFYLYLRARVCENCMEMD
// reported koff per item
Note: unit s⁻¹ is implicit; provide only the numeric part.

Known koff results, listed for orientation:
binder: 10A4-H4K1-IgG1-LALA (antibody, V domains shown, Humanized; human IgG1 with LALA mutations; also called H4K1 (humanized 10A4)) VH: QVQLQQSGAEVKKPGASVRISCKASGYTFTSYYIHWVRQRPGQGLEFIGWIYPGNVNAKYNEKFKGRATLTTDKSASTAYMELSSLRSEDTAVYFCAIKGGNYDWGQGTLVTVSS VL: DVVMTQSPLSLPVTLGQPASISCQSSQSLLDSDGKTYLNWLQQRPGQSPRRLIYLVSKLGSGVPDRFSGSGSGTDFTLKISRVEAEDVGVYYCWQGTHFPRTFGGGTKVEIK
reading: 8.91e-05
//
binder: 10A4-H2K1-IgG1-LALA (antibody, V domains shown, Humanized; human IgG1 with LALA mutations; also called H2K1 (humanized 10A4)) VH: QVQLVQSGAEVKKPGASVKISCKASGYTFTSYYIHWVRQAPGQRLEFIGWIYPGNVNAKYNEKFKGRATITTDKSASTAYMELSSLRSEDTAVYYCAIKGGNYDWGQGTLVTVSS VL: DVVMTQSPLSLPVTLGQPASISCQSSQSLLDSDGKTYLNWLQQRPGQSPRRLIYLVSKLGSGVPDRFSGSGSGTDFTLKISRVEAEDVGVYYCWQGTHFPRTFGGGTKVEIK
reading: 0.000111

Proceeding to the next binder to report its koff.
Exercise: Fill blank: measured koff of the binder 10A4-H3K1-IgG1-LALA (antibody, V domains shown, Humanized; human IgG1 with LALA mutations; also called H3K1 (humanized 10A4)) VH: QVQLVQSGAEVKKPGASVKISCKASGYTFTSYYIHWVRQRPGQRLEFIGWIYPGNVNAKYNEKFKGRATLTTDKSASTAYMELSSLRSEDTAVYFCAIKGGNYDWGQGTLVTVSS VL: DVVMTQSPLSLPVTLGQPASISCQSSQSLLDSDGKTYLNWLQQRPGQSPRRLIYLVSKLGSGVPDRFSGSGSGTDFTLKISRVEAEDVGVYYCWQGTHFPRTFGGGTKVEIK is ____.
Key: 0.00014

Recorded values, source patent US20210269525A1.
